# ASSAY_METHOD_TEXT: yeast display, Sf9 membrane polyspecificity reagent, FACS + sequencing; frameworks hold sequencing errors
ENDPOINT_NAME: polyreactivity (PSR sort gate)

Below: 5 sequences and their reported polyreactivity (PSR sort gate).
QVQLVESGGGLVQAGGSLRLSCAASGSTFTVYDMGWYRQAPGKERELVAGISRRGSSTYYADSVKGRFTISRDNAKNTVYLQMNSLKPEDTAVYYCAARGAVIRYPDKRYPVRYDYWGQGTQVTVSS
high polyreactivity
QVQLVESGGGLVQAGGSLRLSCAASGRIFRGYGMGWYSQAPGKERVLVAAITSRGGSTYYADSVKGRFTSSRDNAKNTVYLQMNSLKPQDTAVYYCYAVAFYYVGSKTYTRGLDYWGQGTQVTVSS
high polyreactivity
QVQLVESGGGLVQAGGSLRLSCSSSGRIFNDYAMGWYRKAPGKERELVATYADSEKGRFTISRYTAKKTVYLQMNSLKPEDTAVYYCAADFPSFPDFRPEYDYWGQGPQVTVSS
low polyreactivity
QVHLVESGGGLVQAGGSLRISCSASGPSYTHYAMGWYRQAPGKERELVASICDGGGTHYADSVKGRFTISRDNAKNTVYLEMKSLKPEDTAVYYCATYRYPTRRYDYWGQGTQVPVSS
low polyreactivity
QVQLVESGGRLVQAGGSLRLSCAASGSIFVHNAMGWYRQAPGKERDLVAANTWSGGSTYYADSVKGRFTISRDNAKNTVYLQMNSVKPEDTAVYYCAAEDVAAQWAYESPTSYWYYYWGQGTQVTVSS
low polyreactivity

Reported polyreactivity (PSR sort gate) ( "QVQLVESGGGLVQAGGSLRISCAASGSIFPEYAMGWYRQAPGKERELVAAITTSGGSTYYADSVKGRFTISRDNAKNTVYLQMNSLKPEDTAVYYCAVEYLVYLDYTYDYWGQGTQVTVSS" ) = low polyreactivity

Reported polyreactivity (PSR sort gate) ( "QVQLVESGGGLVQAGGSLRLSCAASGRTFWPYAMGWYRQAPGKERELVAAISTSGGSTYYADSVKGRFTISRDNAKNTVYLQMNSLKPEDTAVYYCAAYSTLTPAYEYWGQGTQVTVSS" ) = high polyreactivity

Reported polyreactivity (PSR sort gate) ( "QVQLEESGGGLVQAGGSLRLTCAASGRIFYRYAMGWYRQAPGKEREFVAAISGTGGSTYYADSVKGRFTISRDNAKNTVNLQMNSLKPEDTAVYYCAAVSYYSSGYDYWGQGTQVTVSS" ) = high polyreactivity

Reported polyreactivity (PSR sort gate) ( "QVQLVESGGGLVQAGGSLRLSCAASGFIFRYYAMGWYRQAPGKERELVAAISGSGGSTYYADSVKGRFTISRDNAKNTVYLQMNSLKPEDTAVYYCAAYYYGYEYWGQGTQVTVSS" ) = high polyreactivity

Reported polyreactivity (PSR sort gate) ( "QVQLVESGGGLVQAGGSLRLSCAASGSTFVQYVMGWYRQAPGKERELVAAISSSGGSTYYADSVKGRFTISRDNAKNTVYLQMNSLKPEDTAVYDCAARRLPRPWTSTSDYWGQGTQVTVSS" ) = high polyreactivity

Reported polyreactivity (PSR sort gate) ( "QVQLVESGGGLVQAGGSLRLSCAASGRTFYPYAMGWYRQAPGKERELVAAISWNGGRTYYADSVKGRFTISRDNAKNTVYLQMTSLKPEDTAVYYCAADTAYYGFDYWGQGTQVTVSS" ) = low polyreactivity
